The reported numbers originate from ChEMBL document CHEMBL4513216.

- test protocol: Toxicity liver stage against HepG2, at 10uM
- Assay type: cell-based
- Parameters: test concentration 10 uM, cell line HepG2-A16-CD81EGFP
- measurement setup: human, HepG2-A16-CD81EGFP cells; read-out: INHIBITION
property label: cytotoxicity at 10 µM (%)
Field format: number, assumed %, no unit text.

molecule	unit abbreviation	cytotoxicity at 10 µM
Cc1cccc(C(=O)N2CCCN(CCCSCC#N)CC2)c1	%	-150
Cc1nsc(NCCNS(=O)(=O)c2ccccc2)n1	%	-2.78
O=C(c1ccc(O)cc1)N1CCN(C(=O)c2ccc3c(c2)COC3)CC1	%	-9.75

Entry `CN(CCC(N)=O)Cc1cc(Br)cs1` — recorded cytotoxicity at 10 µM = -0.711

Just so you know, measured cytotoxicity at 10 µM for `CCc1cc(N2C[C@H](C3CC3)[C@@H](N)C2)nc(N2CCOCC2)n1` came out at -1.47

Cc1ccc(NC(=O)N2CCCC(O)C2)c(Br)c1 (centres undefined) yielded cytotoxicity at 10 µM of 7.72

The reported value for Cc1n[nH]c(C(=O)N2CCCC(C)CC2)c1Br (centres undefined) in terms of cytotoxicity at 10 µM is -1.74

Sample `O=C(CN1CCN(C(=O)c2ccccc2)CC1)Nc1ccc(Br)cn1` ; cytotoxicity at 10 µM observed: 14.1

molecule Cc1ccc(CCNC(=O)CC2COCCN2S(=O)(=O)N(C)C)o1 (centres undefined) , cytotoxicity at 10 µM observed: 3.39

cytotoxicity at 10 µM recorded for this molecule, `COCC(=O)Nc1ccc(-c2noc([C@@H]3CCCN3CC(C)C)n2)cn1` , is 5.82

Please fill in: cytotoxicity at 10 µM reported for `COC1CCN(CC(=O)NCc2ccc(OCC(N)=O)cc2)CC1` = -0.094

Reported cytotoxicity at 10 µM for Cc1cnn(CC2CCCN2C(=O)c2ccc(C(N)=O)cn2)c1 (centres undefined) was -4.64

Lab book: cytotoxicity at 10 µM of `O=C(CCn1ccccc1=O)Nc1ccc(I)cc1` noted as 7.27

Sample `CC(=O)N1CC[C@H]2[C@H](C[C@@H](Cn3cncn3)N2c2nccs2)C1` ; cytotoxicity at 10 µM observed: -140

// field: cytotoxicity at 10 µM; key: `NC(=O)N1CCC2(CCN(Cc3cccc(F)c3)CC2)CC1` ; value = -10.1

cytotoxicity at 10 µM reading for `Cc1noc(CN(Cc2ccc3c(c2)OCO3)C2CCCC2)n1` : -5.28

Record `Cc1cc(C(=O)N2CCO[C@H]3[C@H](Oc4ccccn4)CC[C@@H]32)c(C)[nH]1` . Reported cytotoxicity at 10 µM: -107

# cytotoxicity at 10 µM (molecule: `COC[C@@]12CCO[C@@H]1CCN(Cc1ccccc1F)C2` ) is -12.9

Reported cytotoxicity at 10 µM for `COc1ccccc1N1CCN(C(=O)c2ccoc2)CC1` was 11.5

The molecule listed as `O=C(NCCc1ccn(-c2ccccc2)n1)N1CCSCC1` has a reported cytotoxicity at 10 µM of -2.71

The reported value for CN1CCC(NC(=O)c2cc(Br)cc(Cl)c2O)C1=O (centres undefined) in terms of cytotoxicity at 10 µM is -5.79

// sample `CCc1ccc(CN2CCc3ncnc(N4CCOCC4)c3CC2)o1` , its cytotoxicity at 10 µM was -2.05

Entry Cc1c(COC(C)C)cccc1NC(=O)N1CCC(N2CCCC2)C1 (centres undefined) — recorded cytotoxicity at 10 µM = -5.56

// cytotoxicity at 10 µM lookup, molecule = `CN(C)C[C@]12COC[C@H]1CN(Cc1ccccn1)C2` , result: 5.89

----------
cytotoxicity at 10 µM: recorded values
- test protocol: Toxicity liver stage against HepG2, at 10uM
- Type: cell-based
- Design: test concentration 10 uM, cell line HepG2-A16-CD81EGFP
- measurement setup: human, HepG2-A16-CD81EGFP cells; read-out: INHIBITION
Write down the numeric answer in % and omit the unit.

Use the examples below as a reference point.
compound	unit abbreviation	cytotoxicity at 10 µM
CSCC(CCO)NC(=O)Nc1cc(F)ccc1C (centres undefined)	%	-1.8
Cc1ccc(C(=O)N2C[C@@H]3OCCN(CC4CCCC4)[C@@H]3C2)cn1	%	-76
CCOc1ncccc1CNc1nnc(C)c(C)c1C#N	%	-12.1
CC(C)CC(C)N(C)C(=O)c1nc(S(C)(=O)=O)n2ccccc12 (centres undefined)	%	-9.24
CCc1cc(C(C)Nc2nc(-c3cccnc3)nc3c2CNC3)on1 (centres undefined)	%	16.9

Shift focus to the following entry.
Recorded cytotoxicity at 10 µM (compound `COc1ccc(CNc2ncc(-c3cc(C)no3)c(C(C)C)n2)cc1` ): 2.73

----------
- test protocol: Toxicity liver stage against HepG2, at 10uM
- Assay type: cell-based
- Parameters: test concentration 10 uM, cell line HepG2-A16-CD81EGFP
- measurement setup: human, HepG2-A16-CD81EGFP cells; read-out: INHIBITION
property label: cytotoxicity at 10 µM (%)
# output: bare number, implied unit %

Examples from the recorded data:
compound	unit abbreviation	cytotoxicity at 10 µM
CC(C)N1CCC2(CC1)C(=O)N(CCN(C)C)c1ccccc12	%	-121
Cc1ccc(C(=O)N2CCC3(CCN3Cc3ccc(F)cc3)C2)cn1 (stereo not drawn)	%	-116

Lab note: `CN1CC=C(CCN(C)C(=O)CCc2ccccc2)CC1` gave cytotoxicity at 10 µM of -5.84

Lab note: N#Cc1ccc(F)c(CN(CC(=O)N2CCCC2)CC2CCCO2)c1 (stereo not drawn) gave cytotoxicity at 10 µM of -7.06

----------
- test protocol: Toxicity liver stage against HepG2, at 10uM
- Assay type: cell-based
- Parameters: test concentration 10 uM, cell line HepG2-A16-CD81EGFP
- measurement setup: human, HepG2-A16-CD81EGFP cells; read-out: INHIBITION
property label: cytotoxicity at 10 µM (%)
Numbers only; they are read as %.

molecule	cytotoxicity at 10 µM / %
Cc1nc(NCC2CC2)nc2c1COCC21CCN(C(=O)NC(C)C)C1 (stereo not drawn)	-83.2
CC(C)NC(=O)CN(C)C(=O)c1c(Br)c2ccccc2n1C	4.61
CCc1ccc(CCC(=O)N2CCC(=O)Nc3cccnc32)cc1	-46.7
Cc1cccnc1NCCNC(=O)[C@H]1CNC[C@@H](C(=O)N2CCCC2)C1	-11.3
CN1CCCN(CC(CC(=O)Nc2ccc(Cl)cc2)C(=O)O)CC1 (stereo not drawn)	-5.4

Entry under test: CCCn1nccc1-c1nccnc1CC1CCN(C(C)=O)C1 (stereo not drawn) . Its cytotoxicity at 10 µM was 1.34

The molecule listed as `CCNC(=O)[C@@H]1C[C@@H](NC(=O)c2cccn2C)CN1CCCSC` shows cytotoxicity at 10 µM equal to -122

CC1CS(=O)(=O)CCN1Cc1ccccc1OCC(F)(F)F (stereo not drawn) yielded cytotoxicity at 10 µM of -4.86

----------
- test protocol: Toxicity liver stage against HepG2, at 10uM
- Type: cell-based
- Set-up: test concentration 10 uM, cell line HepG2-A16-CD81EGFP
- measurement setup: human, HepG2-A16-CD81EGFP cells; read-out: INHIBITION
molecules and their reported cytotoxicity at 10 µM
Return type: number; implicit unit %.

molecule	unit abbreviation	cytotoxicity at 10 µM
CCCOCC(=O)N1CCCN(Cc2csc(CC)n2)CC1	%	3.78
Cc1cc(C)n(C2CN(CC(O)c3cc(F)ccc3F)C2)n1 (stereo unspecified)	%	-15.1
CCNC(=O)NC(=O)CNc1cc(C(=O)OC)cc(C(F)(F)F)c1	%	-7.03
CC(=O)NCCNC(=O)c1cnc2c(c1)nc(-c1ccccc1Cl)n2C	%	4.99
CC(O)(CNC(=O)NCc1cccc(-n2cncn2)c1)c1ccco1 (stereo unspecified)	%	15

Now for a further molecule.
cytotoxicity at 10 µM for CC(C)(C)C(=O)N1CCCC1c1nc(O)cc(-c2ccccn2)n1 (stereo unspecified) is -1.26

----------
- test protocol: Toxicity liver stage against HepG2, at 10uM
- Type: cell-based
- Design: test concentration 10 uM, cell line HepG2-A16-CD81EGFP
- measurement setup: human, HepG2-A16-CD81EGFP cells; read-out: INHIBITION
property label: cytotoxicity at 10 µM (%)
# output: bare number, implied unit %

Before answering, review these 5 worked examples.
compound	cytotoxicity at 10 µM, %
O=C(CCn1ncc2c(Cl)cccc21)NCC1CC1	10.6
COCCn1cc(CCC(=O)Nc2c(C)nn(C)c2C)c2ccccc21	-177
FC(F)(F)c1cccc(OC2CCN(Cc3ncc[nH]3)CC2)c1	-2.45
CCC(C)(C)C(=O)NCCCOC1CCOC1 (stereo not drawn)	-6.21
O=C(NCCc1cnccn1)c1ccc(S(=O)(=O)NC2CCC2)cc1	7.63

Looking up NC(=O)c1csc(C(=O)N2CCCCC2Cn2cccn2)c1 (stereo not drawn) , I see its cytotoxicity at 10 µM listed as -3.56

// recorded cytotoxicity at 10 µM for `CC(C)(C)c1ccc(C(=O)NCCCNC(=O)c2cnccn2)cc1` : 6.58

Lab note: measured cytotoxicity at 10 µM of CN(CC1(O)CCCN(CCC2CCCCC2)C1=O)C1CCOCC1 (stereo not drawn) was 12.7

So for `O=S1(=O)C[C@@H]2[C@H](C1)N(Cc1cccc(O)c1)CCN2CC1CC1` , the logged cytotoxicity at 10 µM turned out to be 1.79

Input `O=C(c1nsc(Cl)c1Cl)N1CCc2nc3sccc3c(=O)n2CC1` . Output cytotoxicity at 10 µM: -20.4
